Molecular target: T1, hVEGF-A (8-109) (human, UniProt P15692 214-315)
T1 sequence (looked up): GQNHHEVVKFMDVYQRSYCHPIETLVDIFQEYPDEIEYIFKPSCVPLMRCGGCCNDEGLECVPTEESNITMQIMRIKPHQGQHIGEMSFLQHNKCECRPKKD
Assay: spot phage ELISA
parameter: S/N vs BSA

{"columns": ["binder", "testResult"],
 "data": [
  ["GCNIMLPFWGCGKELNCLAGCVCQYYQSCG (designed binder) [VEGF_CKP9.54.69]", 21.7],
  ["GCNIMLPFWGCSGDFACLAGCVCQYYQSCG (designed binder) [VEGF_CKP9.54.64]", 22.4],
  ["GCDVMQPYWGCGPDIDCLAGCVCHWYNSCG (designed binder, also called L2.9.63.12) [VEGF_CKP9.63.12]", 39.9],
  ["GCNIMLPFWGCQADYACLAGCVCQYYQSCG (designed binder) [VEGF_CKP9.54.14]", 23.5],
  ["GCNIMLPFWGCGKDFHCLAGCVCQYYQSCG (designed binder) [VEGF_CKP9.54.56]", 35.8],
  ["GCNIMLPFWGCGPELNCLAGCVCQYYQSCG (designed binder) [VEGF_CKP9.54.12]", 38.8],
  ["GCDVMQPYWGCGESLSCLAGCVCHWYNSCG (designed binder, also called L2.9.63.69) [VEGF_CKP9.63.69]", 23.7]
]}
